Property: synaptosome phagocytic index; scope: individual compounds
tested on: PBMC-derived induced microglia-like cells (piMGLC); assay: synaptosome phagocytic index relative to DMSO control (fraction of DMSO); higher = more phagocytosis; conditions: concentration: 10 uM (2 uM for compounds listed in Table S2); pretreatment time: 24 h; assay time: 3 h
Where a name gives a salt, the structure may show the parent alone.
Would you mind answering with just the numeric figure?

{"columns": ["compound", "synaptosome phagocytic index"],
 "data": [
  ["O=C(O)Cc1ccccc1Nc1c(Cl)cccc1Cl [Diclofenac]", 1.01],
  ["CN1C(=O)[C@@H](NC(=O)c2n[nH]c(Cc3ccccc3)n2)COc2ccccc21", 1.15],
  ["CCCCOc1ccc(C(=O)CCN2CCCCC2)cc1 [Dyclonine_(hydrochloride)]", 0.68],
  ["CC(C(=O)O)c1cccc(C(=O)c2ccccc2)c1 (stereo not given)", 0.731]
]}

Problem: // fetch synaptosome phagocytic index given entry Nc1nc(=O)n([C@@H]2CS[C@H](CO)O2)cc1F
Result: 0.777

###

tested on: PBMC-derived induced microglia-like cells (piMGLC); test: synaptosome phagocytic index relative to DMSO control (fraction of DMSO); higher = more phagocytosis; conditions: concentration: 10 uM (2 uM for compounds listed in Table S2); pretreatment time: 24 h; assay time: 3 h
Structures can show the parent of a compound that is named as a salt.
Respond with MET for synaptosome phagocytic index values of 0.9 and above, NOT MET for values below.

Illustrative cases are given below, each with its answer.
{"columns": ["compound", "qualitative_label"],
 "data": [
  ["Cc1ccc(NC(=O)c2ccc(CN3CCN(C)CC3)cc2)cc1Nc1nccc(-c2cccnc2)n1 [Imatinib_(Mesylate)]", "NOT MET"],
  ["Nc1cccc2c1CN(C1CCC(=O)NC1=O)C2=O (stereo not given) [Lenalidomide]", "MET"],
  ["NS(=O)(=O)Cc1noc2ccccc12 [Zonisamide]", "NOT MET"],
  ["C[C@@H]1CN(c2cccnc2F)C(=O)c2cc(COc3ccc(Cl)cn3)nn21", "MET"],
  ["CNCCCC1c2ccccc2C=Cc2ccccc21 [Protriptyline_(hydrochloride)]", "MET"]
]}

Problem: Reported synaptosome phagocytic index reaches at least 0.9 for C[C@@H]1O[C@@H]1P(=O)(O)O [Fosfomycin_(sodium)] ?
Result: MET

Problem: Reported synaptosome phagocytic index reaches at least 0.9 for N#Cc1cccc(C(=O)Nc2cc(-c3ccccc3)nn2-c2ccccc2)c1 ?
Result: NOT MET

Problem: Reported synaptosome phagocytic index reaches at least 0.9 for CCCCC1C(=O)N(c2ccccc2)N(c2ccccc2)C1=O ?
Result: NOT MET

Problem: Reported synaptosome phagocytic index reaches at least 0.9 for CCCCCOC(=O)Nc1nc(=O)n([C@@H]2O[C@H](C)[C@@H](O)[C@H]2O)cc1F ?
Result: NOT MET

Problem: Reported synaptosome phagocytic index reaches at least 0.9 for C[C@@H](O[C@H]1OCCN(Cc2n[nH]c(=O)[nH]2)[C@H]1c1ccc(F)cc1)c1cc(C(F)(F)F)cc(C(F)(F)F)c1 [Aprepitant] ?
Result: MET

Problem: Reported synaptosome phagocytic index reaches at least 0.9 for CCC(=O)NCC[C@@H]1CCc2ccc3c(c21)CCO3 ?
Result: NOT MET

###

system: PBMC-derived induced microglia-like cells (piMGLC); assay: synaptosome phagocytic index relative to DMSO control (fraction of DMSO); higher = more phagocytosis; details: concentration: 10 uM (2 uM for compounds listed in Table S2); pretreatment time: 24 h; assay time: 3 h
Where a name gives a salt, the structure may show the parent alone.
Property: synaptosome phagocytic index; scope: individual compounds
Would you mind answering with just the numeric figure?

Please review the entries below; each comes with its answer.
{"columns": ["compound", "quantitative_readout"],
 "data": [
  ["CN1CCN(C2=Nc3ccccc3Nc3ccccc32)CC1", 0.876],
  ["CCCCN1CCCCC1C(=O)Nc1c(C)cccc1C (centres undefined) [Bupivacaine_(hydrochloride)]", 0.836],
  ["COc1ccc2c(c1)c(CC(=O)O)c(C)n2C(=O)c1ccc(Cl)cc1", 1.22]
]}

Now for the compound whose synaptosome phagocytic index we want.
Problem: // fetch synaptosome phagocytic index given entry NC(=O)N1c2ccccc2CC(=O)c2ccccc21 [Oxcarbazepine]
Result: 0.693
